Test system: MCF7
Experiment: Cell viability, olaparib alone or with PHI-101 (Example 3)
Format: cell-based
Conditions: Homo sapiens, medium instead of PHI-101, 72 hours
MEASURE NAME: IC50 (µM)
Use µM as the unit, but write only the number.

q: // fetch IC50; item: O=C(c1cc(Cc2n[nH]c(=O)c3ccccc23)ccc1F)N1CCN(C(=O)C2CC2)CC1 ; system: MCF7
a: 98

---

System: ZR-75-1
Assay: Cell viability, PHI-101 alone or with cisplatin (Example 2)
Type: cell-based
Conditions: Homo sapiens, medium instead of cisplatin, 72 hours
MEASURE NAME: IC50 (µM)
Field format: number, assumed µM, no unit text.

q: Enter measured IC50, system ZR-75-1, for the compound shown: NC(=O)Nc1cc(C#Cc2cccc(F)c2)sc1C(=O)N[C@H]1CCCNC1
a: 11.8

Hello, the source for this data is patent US11938123B2, in case you need it.
